Target: Cyclin-G-associated kinase (Homo sapiens, UniProt O14976)
Sequence (O14976 whole entry): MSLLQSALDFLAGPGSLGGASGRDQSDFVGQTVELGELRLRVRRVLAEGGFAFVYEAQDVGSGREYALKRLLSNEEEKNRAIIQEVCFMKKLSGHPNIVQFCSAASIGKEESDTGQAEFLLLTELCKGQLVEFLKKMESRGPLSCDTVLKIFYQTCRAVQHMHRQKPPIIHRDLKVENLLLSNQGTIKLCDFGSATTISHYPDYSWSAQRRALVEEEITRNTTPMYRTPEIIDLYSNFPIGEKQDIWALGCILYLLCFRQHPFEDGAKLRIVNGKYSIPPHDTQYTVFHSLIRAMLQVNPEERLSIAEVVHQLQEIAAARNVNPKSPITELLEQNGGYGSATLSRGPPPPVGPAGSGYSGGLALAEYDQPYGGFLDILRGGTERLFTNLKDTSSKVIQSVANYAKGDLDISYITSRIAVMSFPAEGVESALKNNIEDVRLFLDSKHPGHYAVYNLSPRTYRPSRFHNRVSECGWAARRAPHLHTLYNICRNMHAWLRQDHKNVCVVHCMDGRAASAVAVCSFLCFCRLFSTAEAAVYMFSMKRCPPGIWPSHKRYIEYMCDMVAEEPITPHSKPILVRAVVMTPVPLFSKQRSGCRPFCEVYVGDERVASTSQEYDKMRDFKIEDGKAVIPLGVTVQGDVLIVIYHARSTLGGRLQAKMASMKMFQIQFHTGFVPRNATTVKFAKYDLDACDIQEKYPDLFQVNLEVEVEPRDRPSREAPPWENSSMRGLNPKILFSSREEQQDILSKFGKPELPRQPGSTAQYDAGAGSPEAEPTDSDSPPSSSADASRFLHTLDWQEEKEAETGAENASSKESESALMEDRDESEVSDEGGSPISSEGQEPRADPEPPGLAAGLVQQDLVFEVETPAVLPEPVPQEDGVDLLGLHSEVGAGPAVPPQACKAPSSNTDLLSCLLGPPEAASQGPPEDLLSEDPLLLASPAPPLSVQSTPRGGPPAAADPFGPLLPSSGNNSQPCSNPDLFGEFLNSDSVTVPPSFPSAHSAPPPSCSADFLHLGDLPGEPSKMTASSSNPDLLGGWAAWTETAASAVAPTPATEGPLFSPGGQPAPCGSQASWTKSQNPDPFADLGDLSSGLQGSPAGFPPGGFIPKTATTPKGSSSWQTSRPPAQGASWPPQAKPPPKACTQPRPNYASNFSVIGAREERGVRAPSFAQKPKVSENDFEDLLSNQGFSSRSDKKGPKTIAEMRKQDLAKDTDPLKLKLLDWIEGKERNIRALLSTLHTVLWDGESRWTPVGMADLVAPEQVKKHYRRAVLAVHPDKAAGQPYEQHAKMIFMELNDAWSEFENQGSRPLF
Reported Metric: IC50 (nM)
Your answer is read as nM, so omit the unit and give the number.

Dear colleague, I am looking for the recorded IC50 of the following compound: COc1nc(-c2cc(-c3cnn(C)c3)cnc2N)cc2c1C(=O)N(CC(F)(F)F)CC2
492

----------
target: Mast/stem cell growth factor receptor Kit (Homo sapiens); assay: Binding affinity to human KIT by KINOMEscan assay
Sequence (P10721 whole entry): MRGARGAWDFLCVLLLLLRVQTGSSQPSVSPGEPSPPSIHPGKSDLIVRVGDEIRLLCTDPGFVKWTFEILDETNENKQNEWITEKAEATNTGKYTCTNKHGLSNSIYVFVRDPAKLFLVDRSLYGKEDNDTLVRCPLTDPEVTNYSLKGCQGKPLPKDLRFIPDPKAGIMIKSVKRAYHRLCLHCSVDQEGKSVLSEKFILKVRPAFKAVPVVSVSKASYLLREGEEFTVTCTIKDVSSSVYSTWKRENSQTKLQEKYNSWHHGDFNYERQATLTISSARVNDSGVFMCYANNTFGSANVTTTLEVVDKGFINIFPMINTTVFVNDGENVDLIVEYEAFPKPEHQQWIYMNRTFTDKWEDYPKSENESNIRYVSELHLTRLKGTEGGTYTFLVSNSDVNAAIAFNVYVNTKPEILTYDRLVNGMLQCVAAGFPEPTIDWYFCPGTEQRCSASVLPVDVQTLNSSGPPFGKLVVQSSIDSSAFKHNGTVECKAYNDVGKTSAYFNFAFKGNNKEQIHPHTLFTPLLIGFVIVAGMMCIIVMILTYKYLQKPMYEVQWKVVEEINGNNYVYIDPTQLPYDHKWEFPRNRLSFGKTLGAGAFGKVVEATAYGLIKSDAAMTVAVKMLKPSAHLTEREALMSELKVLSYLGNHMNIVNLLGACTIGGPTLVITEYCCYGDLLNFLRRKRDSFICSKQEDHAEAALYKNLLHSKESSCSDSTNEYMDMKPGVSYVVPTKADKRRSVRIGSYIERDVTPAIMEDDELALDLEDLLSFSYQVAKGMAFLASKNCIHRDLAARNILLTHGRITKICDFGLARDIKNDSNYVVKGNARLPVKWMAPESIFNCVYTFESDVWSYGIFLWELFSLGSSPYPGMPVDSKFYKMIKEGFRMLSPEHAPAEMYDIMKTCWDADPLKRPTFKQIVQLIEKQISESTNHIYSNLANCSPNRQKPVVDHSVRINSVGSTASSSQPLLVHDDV
Reported Metric: IC50 (nM)
Your answer is read as nM, so omit the unit and give the number.

Dear colleague, I am looking for the recorded IC50 of the following compound: COc1nc(-c2cc(-c3cnn(C)c3)cnc2N)cc2c1C(=O)N(CC(F)(F)F)CC2
594
